system: ACHN renal; assay: NCI-60 one-dose screen, 48 h (100 = growth as untreated, 0 = no growth, -100 = all killed); conditions: 10 µM unless noted
Compounds without any hit were thinned out: in the full panel of roughly 83,000, 20% have a hit.
Recorded endpoint: growth (%)
Give the value, in units of %, as a plain number.

Record excerpt, results attached:
- Compound: "O=C(c1ccccc1)c1cc2ccccc2oc1=O"
  growth / %: 101
- Compound: "CC(=O)Nc1ccc(C(=O)CCl)cc1"
  growth / %: -58
- Compound: "N#C/C(=N\\Nc1ccc(Cl)cc1)C(=O)C1CC1"
  growth / %: 69.1
- Compound: "CC1CC(C)(C)OB(OC(C)CC(C)(C)OB2OC(C)CC(C)(C)O2)O1 (configuration not stated)"
  growth / %: 108
- Compound: "CC1(C)CCCC2=C1C(=O)N(SC(Cl)(Cl)Cl)C2=O"
  growth / %: 82.9

I would be grateful if you could share the reported growth for COc1cccc2c1C(=O)c1c(O)c3c(c(O)c1C2=O)C[C@@](O)(C(=O)CO)C[C@@H]3OC1CC(OC(C)=O)C(OC(C)=O)C(C)O1 (some centres not stated) .
-92.2

I would be grateful if you could share the reported growth for "CN(C)c1ccc2cc3c(cc2c1)Oc1ccccc1N3.[Cl][Zn][Cl]" .
70.9

I would be grateful if you could share the reported growth for "Oc1c(Cl)cc(Cl)cc1C(c1cc(Cl)cc(Cl)c1O)C(Cl)(Cl)Cl" .
-19.7

----------
system: OVCAR-8 ovarian; assay: NCI-60 one-dose screen, 48 h (100 = growth as untreated, 0 = no growth, -100 = all killed); conditions: 10 µM unless noted
Compounds without any hit were thinned out: in the full panel of roughly 83,000, 20% have a hit.
Recorded endpoint: growth (%)
Give the value, in units of %, as a plain number.

Record excerpt, results attached:
- Molecule: "CC1(C)CCCC2=C1C(=O)N(SC(Cl)(Cl)Cl)C2=O"
  Target system: "OVCAR-8 ovarian"
  growth, %: 102
- Molecule: "Cc1cc(C(=C2C=CC(=Nc3ccccc3)C=C2)c2ccc(Nc3ccccc3)cc2)ccc1N"
  Target system: "OVCAR-8 ovarian"
  growth, %: -59.3
- Molecule: "O=[N+]([O-])c1ccc(Oc2ccccc2Cl)c([N+](=O)[O-])c1"
  Target system: "OVCAR-8 ovarian"
  growth, %: 93.2
- Molecule: "O=[N+]([O-])C=C(c1ccccc1)c1ccccc1"
  Target system: "OVCAR-8 ovarian"
  growth, %: 92.5

I would be grateful if you could share the reported growth for "CC1=CC(=NC(=O)CBr)C=C/C1=N\S(=O)(=O)c1ccccc1" .
66.6

I would be grateful if you could share the reported growth for "O=C(Cc1nc2cc(Cl)c(Cl)cc2nc1CC(=O)c1ccccc1)c1ccccc1" .
73.3

I would be grateful if you could share the reported growth for "Cc1ccc2c(c1)sc(-c1ccc(N(C)C)cc1)[n+]2C" .
16.3

I would be grateful if you could share the reported growth for "O=C(c1ccccc1)N(CCCl)C(=O)N(CCCl)C(=O)c1ccccc1" .
98.5

I would be grateful if you could share the reported growth for "O=C1C=CC(=O)N1c1ccccc1" .
99.5

I would be grateful if you could share the reported growth for "CCCCCCCCCCCC1=NCCCN1CCCC" .
101

I would be grateful if you could share the reported growth for "CCCCCCN(CCCCCC)CCCNc1nccc2ccccc12" .
12

I would be grateful if you could share the reported growth for "CN=C(N)N/N=C(\C)c1ccc2c(c1)Cc1ccccc1-2" .
-66.9

I would be grateful if you could share the reported growth for "c1ccc(-c2cccc(-c3ccccn3)n2)nc1" .
12

I would be grateful if you could share the reported growth for "CC1(O)CCCCCC1" .
102
